target: human 11β-HSD1 (Homo sapiens, UniProt P28845); assay type: biochemical; conditions: read-out: inhibition of 11β-HSD1 enzyme activity
Sequence (P28845 whole entry): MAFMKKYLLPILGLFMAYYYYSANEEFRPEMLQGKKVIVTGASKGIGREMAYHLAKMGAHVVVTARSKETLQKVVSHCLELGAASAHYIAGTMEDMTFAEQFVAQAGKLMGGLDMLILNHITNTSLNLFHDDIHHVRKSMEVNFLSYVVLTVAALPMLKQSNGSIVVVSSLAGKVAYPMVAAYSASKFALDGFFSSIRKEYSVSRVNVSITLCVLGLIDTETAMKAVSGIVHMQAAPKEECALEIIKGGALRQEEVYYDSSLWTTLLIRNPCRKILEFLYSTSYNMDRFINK
MEASUREMENT_KIND: inhibition at 20 µM

Study these solved cases before continuing.
Clc1ccc(C(Cn2ccnc2)OCc2csc3c(Cl)cccc23)c(Cl)c1 (stereo not shown) [sertaconazole]; ≥ 50%
CCCN(CCC)S(=O)(=O)c1ccc(C(=O)O)cc1 [probenecid]; < 40%
N=C(N)c1ccc(OCCCCCOc2ccc(C(=N)N)cc2)cc1 [pentamidine]; < 40%
CCOc1ccc2ccccc2c1C(=O)N[C@@H]1C(=O)N2[C@@H]1SC(C)(C)[C@@H]2C(=O)O [nafcillin]; < 40%
Clc1ccc(C(Cn2ccnc2)OCc2ccsc2Cl)c(Cl)c1 (stereo not shown) [tioconazole]; ≥ 50%
CC(=O)O[C@H]1C[C@@]2(C)[C@@H](C[C@@H](O)[C@H]3[C@@]4(C)CC[C@@H](O)[C@@H](C)[C@@H]4CC[C@@]32C)/C1=C(\CCC=C(C)C)C(=O)O [fusidic acid]; < 40%
CCC[C@@H]1C[C@@H](C(=O)N[C@@H]([C@H]2O[C@H](SC)[C@H](O)[C@@H](O)[C@H]2O)[C@H](C)Cl)N(C)C1 [clindamycin]; < 40%
CCN(CC)CCCC(C)Nc1ccnc2cc(Cl)ccc12 (stereo not shown) [chloroquine]; < 40%

Entry CCN(CC)Cc1cc(Nc2ccnc3cc(Cl)ccc23)ccc1O [amodiaquine] — recorded inhibition at 20 µM = < 40%

The reported inhibition at 20 µM of the molecule Cc1onc(-c2c(F)cccc2Cl)c1C(=O)N[C@@H]1C(=O)N2[C@@H]1SC(C)(C)[C@@H]2C(=O)O [flucloxacillin] was < 40%

Summary for this molecule, CCC[C@@H]1C[C@@H](C(=O)N[C@@H]([C@H]2O[C@H](SC)[C@H](O)[C@@H](O)[C@H]2O)[C@@H](C)O)N(C)C1 [lincomycin] : inhibition at 20 µM is < 40%

Form: molecule = Clc1ccc(CCC(Cn2ccnc2)Sc2c(Cl)cccc2Cl)cc1 (stereo not shown) [butoconazole] ; inhibition at 20 µM = ≥ 50%

The reported value for Cc1onc(-c2ccccc2Cl)c1C(=O)N[C@@H]1C(=O)N2[C@@H]1SC(C)(C)[C@@H]2C(=O)O [cloxacillin] in terms of inhibition at 20 µM is < 40%
